Reference source for all entries: patent US9284321B2

Kindly state melting point for each of the entries shown.
Entry rule: numbers only, all in °C.

stdin: So what does the record say about melting point for N#Cc1cc(-c2ccc(Cl)c(C(F)(F)F)c2)c2c(c1)cc1n2CCCNC1=O ?
stdout: 224.5

stdin: Data request, read-out melting point, for C[C@@H]1CNC(=O)c2cc3cc(F)cc(-c4cccc(F)c4)c3n21
stdout: 232

stdin: So what's the measured melting point for this one? Cc1c2n(c3c(-c4ccc(C#N)cc4)cc(C#N)cc13)CCNC2=O
stdout: 323

stdin: Reported melting point for Cc1c2n(c3c(-c4nnc(C(F)(F)F)s4)cc(F)cc13)CCNC2=O : what is it?
stdout: 227

stdin: Looking for the measured melting point of Cc1c2n(c3c(-c4ccc(F)cc4)cc(C#N)cc13)CCCNC2=O , can you help?
stdout: 278

---

# Test system: human embryonic stem cell derived neural stem cells (NSCs)
# testName: Neural Stem Cell Proliferation Assay (neurogenesis assay, ATP levels by CellTiterGlo)
# Assay type: cell-based
# testContext: 96 h, compound concentration at which 150% activity of control (100%) is reached, NSC proliferation by ATP level after 4 days incubation, dose response 8 μM to 8 nM
Categories are defined by ranges of EC (150% of control), namely group A: < 0.04 µM; group B: ≥ 0.04 µM and < 0.2 µM; group C: ≥ 0.2 µM

stdin: Where would Cc1c2n(c3c(-c4ccc(C#N)cc4)cc(Cl)cc13)CCNC2=O land among the classes by reported EC (150% of control)?
stdout: group A

stdin: Could you place COc1ccc(-c2cc(C#N)cc3cc4n(c23)CCNC4=O)cc1 in its proper category? Many thanks.
stdout: group A

stdin: Category lookup for the compound Cc1c2n(c3c(-c4cc(F)c(F)c(F)c4)cc(C#N)cc13)CCNC2=O
stdout: group B

stdin: Class label required: Cc1c2n(c3c(-c4ccc(Cl)c(C(F)(F)F)c4)cc(F)cc13)CCNC2=O
stdout: group C

stdin: Assign a bin to Cc1c2n(c3c(-c4ccc(OC(F)(F)F)cc4)cc(Cl)cc13)CCNC2=O
stdout: group A

stdin: Sort into band: N#Cc1cc(-c2ccc(F)c(F)c2)c2c(c1)cc1n2CCNC1=O
stdout: group A

stdin: Entry N#Cc1cc(-c2ccc(F)cc2)c2c(c1)cc1n2CCCNC1=O belongs to which category?
stdout: group B

stdin: # classify by EC (150% of control) band: Cc1c2n(c3c(-c4ccc(Cl)nc4)cc(Cl)cc13)CCNC2=O
stdout: group A

stdin: Kindly identify the class of Cc1c2n(c3c(-c4ccc(N(C)C)cc4)cc(F)cc13)CCNC2=O .
stdout: group A

stdin: Field: class (EC (150% of control)) — entry: Cc1c2n(c3c(-c4ccc(N(C)C)cc4)cc(Cl)cc13)CCNC2=O
stdout: group A

stdin: Hey, which category is N#Cc1cc(-c2cccc(Cl)c2)c2c(c1)cc1n2CCCNC1=O in, do you know?
stdout: group C

stdin: For the record Cc1c2n(c3c(-c4ccc(N(C)C)nc4)cc(F)cc13)CCNC2=O , report the class its EC (150% of control) corresponds to.
stdout: group A

stdin: Please classify: O=C1NCCn2c1cc1cc(F)cc(-c3ccncc3)c12
stdout: group A

stdin: Band assignment needed for CN1CCn2c(cc3cc(F)cc(-c4ccc(F)cc4)c32)C1=O please.
stdout: group C

stdin: // return the class label for O=C1NCCn2c1c(C(F)(F)F)c1cc(Cl)cc(-c3ccc(Cl)cc3)c12
stdout: group B

stdin: Determine which band this compound sits in: N#Cc1cc(-c2ccc(N)nc2)c2c(c1)cc1n2CCNC1=O
stdout: group C

stdin: // return the class label for Cc1c2n(c3c(-c4ccc(Cl)c(C(F)(F)F)c4)cc(C#N)cc13)CCNC2=O
stdout: group C

stdin: Which class does CC1CCNC(=O)c2cc3cc(F)cc(-c4ccccc4)c3n21 (racemic) fall in?
stdout: group C

stdin: Which EC (150% of control) band matches O=C1NCCn2c1cc1cc(F)cc(-c3ccc(F)c(F)c3)c12 ?
stdout: group A

stdin: Exercise: read the entry Cc1c2n(c3c(-c4cc(F)cc(F)c4)cc(C#N)cc13)CCNC2=O and state which class it falls under.
stdout: group B

stdin: Bin? Cc1c2n(c3c(-c4cccnc4)cc(F)cc13)CCNC2=O
stdout: group B

stdin: For the record Cc1c2n(c3c(-c4ccc(C(C)(C)C)cc4)cc(Cl)cc13)CCNC2=O , report the class its EC (150% of control) corresponds to.
stdout: group B

stdin: Could you place Cc1c2n(c3c(-c4ccnc(Cl)c4)cc(Cl)cc13)CCNC2=O in its proper category? Many thanks.
stdout: group B

stdin: Just checking, what class would you give COc1cc(-c2ccc(F)cc2)c2c(c1)cc1n2CCNC1=O here?
stdout: group C

stdin: Form field 'band' for N#Cc1ccc(-c2cc(C#N)cc3cc4n(c23)CCNC4=O)cc1
stdout: group B

stdin: Dear colleague, I would appreciate it if you could identify the bin for Cc1c2n(c3c(-c4ccc([N+](=O)[O-])cc4)cc(Cl)cc13)CCNC2=O and reply at your convenience.
stdout: group A

stdin: Assign a bin to Cc1c2n(c3c(-c4cccnc4)cc(Cl)cc13)CCNC2=O
stdout: group B

stdin: Which band does N#Cc1cc(-c2cc(F)cc(F)c2)c2c(c1)cc1n2CCCNC1=O fall in?
stdout: group C

stdin: Which class is correct for the following compound? N#Cc1cc(-c2ccnc(Cl)c2)c2c(c1)cc1n2CCCNC1=O
stdout: group C

stdin: Band of N#Cc1cc(-c2ccnc(Cl)c2)c2c(c1)cc1n2CCNC1=O ?
stdout: group C

stdin: Assign a bin to Cc1c2n(c3c(-c4ccc(Cl)cc4)cc(F)cc13)CCNC2=O
stdout: group A

stdin: Determine which band this compound sits in: Cc1c2n(c3c(-c4ccc(F)c(F)c4F)cc(Cl)cc13)CCNC2=O
stdout: group A

stdin: Band for N#Cc1cc(-c2ccc(OC(F)(F)F)cc2)c2c(c1)cc1n2CCCNC1=O ?
stdout: group C

stdin: Sort Cc1c2n(c3c(-c4ccncc4)cc(C#N)cc13)CCNC2=O into one of the categories.
stdout: group B

stdin: Which class is correct for the following compound? COc1ccc(-c2cc(Cl)cc3cc4n(c23)CCCNC4=O)cc1
stdout: group B

stdin: Band for Cc1c2n(c3c(-c4ccccc4)cc(Cl)cc13)CCNC2=O ?
stdout: group B
